Test: absorption spectrum (maximum absorption wavelength, molar extinction coefficient)
Assay type: physicochemical
reportedEndpoint: maximum absorption wavelength

Recorded maximum absorption wavelength of COc1c(NCC2CCC(C(=O)NCCCC[P+](c3ccccc3)(c3ccccc3)c3ccccc3)CC2)c2c(=O)cc(OC)c3c4c(OC)cc(=O)c5c(O)c(NCC6CCC(C(=O)NCCCC[P+](c7ccccc7)(c7ccccc7)c7ccccc7)CC6)c6c(c(c1CC(C)=C6)c23)c54 (stereo not shown) [HC-13b-NH—C4-PPh3+] , please. 626 nm

Recorded maximum absorption wavelength of COc1c(O)c2c(=O)cc(OC)c3c4c(OC)cc(=O)c5c(NCc6cccc[n+]6C)c(NCc6cccc[n+]6C)c6c(c(c1C(C(C)=O)C(C)=C6)c23)c54 (stereo not shown) [HB-38a-N^+] , please. 620 nm

Recorded maximum absorption wavelength of COc1c2c3c4c(c(NCC5CCC(C(=O)OCCCCCC[P+](c6ccccc6)(c6ccccc6)c6ccccc6)CC5)c(=O)c5c(NCC6CCC(C(=O)OCCCCCC[P+](c7ccccc7)(c7ccccc7)c7ccccc7)CC6)cc(OC)c(c6c(OC)cc(O)c(c1=O)c63)c54)C=C(C)C2 (stereo not shown) [HC-30c-C6-PPh3^+] , please. 632 nm

====

Experiment: absorption spectrum (maximum absorption wavelength, molar extinction coefficient)
Format: physicochemical
reportedEndpoint: molar extinction coefficient

Consider the reported molar extinction coefficient for these compounds:
COc1c2c3c4c(c(NCC(=O)O)c(=O)c5c(O)cc(OC)c(c6c(OC)cc(NCCCC(=O)O)c(c1=O)c63)c54)C=C(C)C2C(C)=O (stereo not drawn) [HB-43d] ... 26,500 M^−1cm^−1
COC(=O)C1CCC(CNc2c(NCC3CCC(C(=O)OC)CC3)c3c(=O)cc(OC)c4c5c(OC)cc(=O)c6c(O)c(OC)c7c(c(c2C=C(C)C7C(C)=O)c34)c65)CC1 (stereo not drawn) [HB-13a-AcE] ... 27,000 M^−1cm^−1

Attention now shifts to the item below.
Recorded molar extinction coefficient of CCNc1c(NC2CCCC2)c2c(=O)c(SCCO)c(OC)c3c4c(OC)cc(=O)c5c(O)c(OC)c6c(c(c1C=C(C)C6C(C)=O)c23)c54 (stereo not drawn) [HB-S-44a] , please. 21,500 M^−1cm^−1

====

Experiment: absorption spectrum (maximum absorption wavelength, molar extinction coefficient)
Format: physicochemical
reportedEndpoint: maximum absorption wavelength (nm)
Form entry: value (nm) — number only.

COCCOCCOCCOCCOCCOCCOCCOCCOCCOCCOCCOCCOCCC(=O)OCCNc1c2c3c4c(c(OC)c(=O)c5c(O)cc(OC)c(c6c(OC)cc(NCCOC(=O)CCOCCOCCOCCOCCOCCOCCOCCOCCOCCOCCOCCOCCOC)c(c1=O)c63)c54)CC(C)=C2 ... 630
COc1c(NCCOC(=O)N2CC(=O)NC(=O)C2)c2c(=O)cc(OC)c3c4c(OC)cc(=O)c5c(O)c(NCCOC(=O)N6CC(=O)NC(=O)C6)c6c(c(c1C(C(C)=O)C(C)=C6)c23)c54 (stereo not drawn) [HB-40b] ... 624

Attention now shifts to the item below.
Recorded maximum absorption wavelength of COc1c(O)c2c(=O)cc(OC)c3c4c(OC)cc(=O)c5c(NCCS(=O)(=O)OC)c(NCCS(=O)(=O)OC)c6c(c(c1C(C(C)=O)C(C)=C6)c23)c54 (stereo not drawn) [HB-12a] , please. 621

====

maximum absorption wavelength for assorted compounds
Test: absorption spectrum (maximum absorption wavelength, molar extinction coefficient)
Type: physicochemical
Form entry: value (nm) — number only.

Consider the reported maximum absorption wavelength for these compounds:
COCCOCCOCCOCCOC(=O)C1CCC(CNc2c(O)c3c(=O)cc(OC)c4c5c(OC)cc(=O)c6c(NCC7CCC(C(=O)OCCOCCOCCOCCOC)CC7)c(OC)c7c(c(c2C=C(C)C7)c34)c65)CC1 (stereo not drawn) [HC-13b-PEG4] ... 624
COCCOCCOCCOCCOCCOCCOCCC(=O)OCCOCCNc1c2c3c4c(c(OC)c(=O)c5c(O)cc(OC)c(c6c(OC)cc(NCCOCCOC(=O)CCOCCOCCOCCOCCOCCOCCOC)c(c1=O)c63)c54)CC(C)=C2 [HC-1c-PEG6] ... 628
COc1c2c3c4c(c(NCCCC(=O)O)c(=O)c5c(O)cc(OC)c(c6c(OC)cc(NCCCC(=O)O)c(c1=O)c63)c54)C=C(C)C2 [HC-8d] ... 623

Recorded maximum absorption wavelength of COCCOCCOCCOCCOCCOCCOCCOCCOCCOCCOCCOCCOC(=O)C1CCC(Nc2c3c4c5c(c(OC)c(=O)c6c(O)cc(OC)c(c7c(OC)cc(NC8CCC(C(=O)OCCOCCOCCOCCOCCOCCOCCOCCOCCOCCOCCOCCOC)CC8)c(c2=O)c74)c65)C(C(C)=O)C(C)=C3)CC1 (stereo not drawn) [HB-14c-PEG12] , please. 628

Recorded maximum absorption wavelength of COc1c(O)c2c(=O)cc(OC)c3c4c(OC)cc(=O)c5c(NCCOC(=O)N6CC(=O)NC(=O)C6)c(NCCOC(=O)N6CC(=O)NC(=O)C6)c6c(c(c1C(C(C)=O)C(C)=C6)c23)c54 (stereo not drawn) [HB-40a] , please. 620

Recorded maximum absorption wavelength of COc1c2c3c4c(c(NCc5ccccn5)c(=O)c5c(NCc6ccccn6)cc(OC)c(c6c(OC)cc(O)c(c1=O)c63)c54)C=C(C)C2C(C)=O (stereo not drawn) [HB-38c] , please. 628

Recorded maximum absorption wavelength of COc1c(O)c2c(=O)cc(OC)c3c4c(OC)cc(=O)c5c(NC(CC(N)=O)C(=O)O)c(NC(CC(N)=O)C(=O)O)c6c(c(c1C(C(C)=O)C(C)=C6)c23)c54 (stereo not drawn) [HB-26a] , please. 614

Recorded maximum absorption wavelength of COc1c2c3c4c(c(NCC(=O)O)c(=O)c5c(NCCCC(=O)O)cc(OC)c(c6c(OC)cc(O)c(c1=O)c63)c54)C=C(C)C2C(C)=O (stereo not drawn) [HB-43c] , please. 626

Recorded maximum absorption wavelength of COC(=O)C(CO)Nc1c2c3c4c(c(OC)c(=O)c5c(NC(CO)C(=O)OC)cc(OC)c(c6c(OC)cc(O)c(c1=O)c63)c54)C(C(C)=O)C(C)=C2 (stereo not drawn) [HB-24d] , please. 621

====

Test: absorption spectrum (maximum absorption wavelength, molar extinction coefficient)
Type: physicochemical
reportedEndpoint: maximum absorption wavelength (nm)
Form entry: value (nm) — number only.

Consider the reported maximum absorption wavelength for these compounds:
COc1c(O)c2c(=O)cc(OC)c3c4c(OC)cc(=O)c5c(NCCCCCC(=O)O)c(NCCCCCC(=O)O)c6c(c(c1CC(C)=C6)c23)c54 ... 620
COc1c(O)c2c(=O)cc(OC)c3c4c(OC)cc(=O)c5c(NCc6ccccn6)c(NCc6ccccn6)c6c(c(c1C(C(C)=O)C(C)=C6)c23)c54 (centres unmarked) [HB-38a] ... 624
COCCOC(=O)CCCNc1c(NCCCC(=O)OCCOC)c2c(=O)cc(OC)c3c4c(OC)cc(=O)c5c(O)c(OC)c6c(c(c1C=C(C)C6)c23)c54 ... 621
COc1c2c3c4c(c(NC5CCCC(C(=O)O)C5)c(=O)c5c(O)cc(OC)c(c6c(OC)cc(NC7CCCC(C(=O)O)C7)c(c1=O)c63)c54)C=C(C)C2C(C)=O (centres unmarked) [HB-15d] ... 623
COc1c2c3c4c(c(NCCO)c(=O)c5c(NCCO)cc(OC)c(c6c(OC)cc(O)c(c1=O)c63)c54)C=C(C)C2C(C)=O (centres unmarked) ... 628

Recorded maximum absorption wavelength of COc1c2c3c4c(c(NCC5CCC(C(=O)NCCCCCCS(=O)(=O)O)CC5)c(=O)c5c(NCC6CCC(C(=O)NCCCCCCS(=O)(=O)O)CC6)cc(OC)c(c6c(OC)cc(O)c(c1=O)c63)c54)C=C(C)C2 (centres unmarked) [HC-13c-C6-SO3H] , please. 630

Recorded maximum absorption wavelength of COc1c(O)c2c(=O)cc(OC)c3c4c(OC)cc(=O)c5c(NCC(=O)O)c(NCC(=O)O)c6c(c(c1C(C(C)=O)C(C)=C6)c23)c54 (centres unmarked) , please. 620

Recorded maximum absorption wavelength of COc1c(O)c2c(=O)cc(OC)c3c4c(OC)cc(=O)c5c(NC6CCCCC6C(=O)O)c(NC6CCCCC6C(=O)O)c6c(c(c1C(C(C)=O)C(C)=C6)c23)c54 (centres unmarked) [HB-16a] , please. 620

Recorded maximum absorption wavelength of COc1c(O)c2c(=O)cc(OC)c3c4c(OC)cc(=O)c5c(NCS(=O)(=O)O)c(NCCCS(=O)(=O)O)c6c(c(c1CC(C)=C6)c23)c54 [HC-45a] , please. 613

Recorded maximum absorption wavelength of `COCCOCCOCCOCCOCCOCCOC(=O)CCCCCNc1c(O)c2c(=O)cc(OC)c3c4c(OC)cc(=O)c5c(NCCCCCC(=O)OCCOCCOCCOCCOCCOCCOC)c(OC)c6c(c(c1C=C(C)C6)c23)c54` , please. 622

Recorded maximum absorption wavelength of COC(=O)C1CCC(CNc2c3c4c5c(c(OC)c(=O)c6c(NCC7CCC(C(=O)OC)CC7)cc(OC)c(c7c(OC)cc(O)c(c2=O)c74)c65)C(C(C)=O)C(C)=C3)CC1 (centres unmarked) [HB-13d-AcE] , please. 623

Hey, just so you know, these numbers are from patent US11439707B2.
